target: T1, c-Met-Fc chimera protein (UniProt P08581 25-932, limits assumed); assay: SPR (Biacore), c-Met-Fc captured by anti-IgG on CM5, single-cycle kinetics
T1 construct: Captured on the SPR chip by an anti-IgG antibody; not shown: Fc part
T1 sequence (P08581 25-932 limits assumed, change not shown): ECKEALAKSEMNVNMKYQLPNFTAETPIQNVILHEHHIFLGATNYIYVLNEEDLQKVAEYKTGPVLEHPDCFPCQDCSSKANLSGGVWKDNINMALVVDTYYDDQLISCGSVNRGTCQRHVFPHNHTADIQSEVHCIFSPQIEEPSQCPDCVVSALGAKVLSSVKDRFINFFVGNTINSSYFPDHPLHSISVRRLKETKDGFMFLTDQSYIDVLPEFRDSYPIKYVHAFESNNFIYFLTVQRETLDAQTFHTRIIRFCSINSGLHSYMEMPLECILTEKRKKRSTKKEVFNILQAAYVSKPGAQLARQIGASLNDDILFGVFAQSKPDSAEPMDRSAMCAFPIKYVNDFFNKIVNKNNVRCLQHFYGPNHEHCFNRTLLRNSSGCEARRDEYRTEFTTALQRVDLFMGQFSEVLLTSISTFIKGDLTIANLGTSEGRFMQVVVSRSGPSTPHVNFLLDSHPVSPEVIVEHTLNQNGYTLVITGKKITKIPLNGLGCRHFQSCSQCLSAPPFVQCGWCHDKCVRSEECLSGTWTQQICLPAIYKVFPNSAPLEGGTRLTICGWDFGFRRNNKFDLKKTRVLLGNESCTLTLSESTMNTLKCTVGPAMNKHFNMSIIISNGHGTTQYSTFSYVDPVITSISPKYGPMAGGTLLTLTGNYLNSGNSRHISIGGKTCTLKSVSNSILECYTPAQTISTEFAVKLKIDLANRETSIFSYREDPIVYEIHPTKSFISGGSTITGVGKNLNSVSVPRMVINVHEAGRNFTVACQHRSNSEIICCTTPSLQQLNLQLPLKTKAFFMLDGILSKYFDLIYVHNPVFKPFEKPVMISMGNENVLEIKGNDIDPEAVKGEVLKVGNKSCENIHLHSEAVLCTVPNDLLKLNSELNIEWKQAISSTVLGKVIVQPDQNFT
Bridges are numbered along the chain shown (N, C = ends). Where no end group is shown, it is not given here. [ ]: non-standard residue; d: D form. NMeR = CN[C@@H](CCCNC(=N)N)C(=O)O; NMeC = CN[C@@H](CS)C(=O)O
quantity name: Kd (nM)

Solved cases below.
binder	Kd (nM)
{CH2CO}-YRQFN[NMeR]RTHEVWNLD[NMeC]G (thioether N-16, also called NMe (N6 + N16); N-methylated D4-3) [D4-3NMe]	5.2
{CH2CO}-[dY]WYYAWDQTYKAFPCG (thioether N-15, also called D5-4 peptide; D5-4 Monomer) [D5-4]	4.6

I: {CH2CO}-YISWNEFNSPNWRFITCG (thioether N-17, also called L5-2 peptide; L5-2 Monomer) [L5-2]
II: {CH2CO}-YRQFNRRTHEVWNLDCG (thioether N-16; not fully specified, also called D4-3 peptide; D4-3 Monomer) [D4-3]
Input pair: I , II . Output: entry with lower Kd. Pick one and reply with its label.
II
